Values were extracted from patent US20200354457A1.

molecular target: T1, cynomolgus LAG3 on transiently transfected HEK293F cells (cynomolgus); assay: flow cytometry on HEK293F cells transfected with cyno LAG3, 10 µg/ml
T1 construct: whole, on cells; also called cyno LAG3; cynomolgus Lag3-positive HEK cells
Below, each entry is listed with its recorded LAG3 positive cells (%).
Numeric answer only, unit % assumed.

Consider the worked cases shown below.
bivalent 9B4 aVH-Fc (Fc fusion) EVQLVESGGGLVQPGGSLRLSCAASGFNIKDTCIGWVRRAPGKGTELVAEICQDIGYTRYADSVKGRFTISADTSKNTAYLQMNSLRAEDTAVYYCAAVEVAEYFEYWGQGTTVTVSSGGGGSGGGGSDKTHTCPPCPAPEAAGGPSVFLFPPKPKDTLMISRTPEVTCVVVDVSHEDPEVKFNWYVDGVEVHNAKTKPREEQYNSTYRVVSVLTVLHQDWLNGKEYKCKVSNKALGAPIEKTISKAKGQPREPQVYTLPPSRDELTKNQVSLTCLVKGFYPSDIAVEWESNGQPENNYKTTPPVLDSDGSFFLYSKLTVDKSRWQQGNVFSCSVMHEALHNHYTQKSLSLSPGK : 68.8
bivalent 17D7 aVH-Fc (Fc fusion) EVQLVESGGGLVQPGGSLRLSCAASGFNIKDTCIGWVRRAPGKGTELVAEICTDIGYTRYADSVKGRFTISADTSKNTAYLQMNSLRAEDTAVYYCAAGEGSSGFHYWGQGTTVTVSSGGGGSGGGGSDKTHTCPPCPAPEAAGGPSVFLFPPKPKDTLMISRTPEVTCVVVDVSHEDPEVKFNWYVDGVEVHNAKTKPREEQYNSTYRVVSVLTVLHQDWLNGKEYKCKVSNKALGAPIEKTISKAKGQPREPQVYTLPPSRDELTKNQVSLTCLVKGFYPSDIAVEWESNGQPENNYKTTPPVLDSDGSFFLYSKLTVDKSRWQQGNVFSCSVMHEALHNHYTQKSLSLSPGK : 63.6

--- query ---
Entry under test: bivalent 21B11 aVH-Fc (Fc fusion) EVQLVESGGGLVQPGGSLRLSCAASGFNIKDTCIGWVRRAPGKGTELVAEICQDIGYTRYADSVKGRFTISADTSKNTAYLQMNSLRAEDTAVYYCAADESVDNFKYWGQGTTVTVSSGGGGSGGGGSDKTHTCPPCPAPEAAGGPSVFLFPPKPKDTLMISRTPEVTCVVVDVSHEDPEVKFNWYVDGVEVHNAKTKPREEQYNSTYRVVSVLTVLHQDWLNGKEYKCKVSNKALGAPIEKTISKAKGQPREPQVYTLPPSRDELTKNQVSLTCLVKGFYPSDIAVEWESNGQPENNYKTTPPVLDSDGSFFLYSKLTVDKSRWQQGNVFSCSVMHEALHNHYTQKSLSLSPGK . Its LAG3 positive cells (%) was 78.9
